# pIC50 annotations
- tgt: RNA-dependent RNA polymerase (SARS-CoV-2) (Severe acute respiratory syndrome coronavirus 2)
- measurement_description: in vitro enzymatic assay of RdRp activity (AlphaScreen detection)
- Type: biochemical
- particulars: RdRp reaction 37°C, 60 minutes, duplicate; 30 minutes preincubation; 1% DMSO
The scale used: pIC50 is minus the common logarithm of the concentration in molar units.

| molecule | pIC50 |
| --- | --- |
| CCCc1c(-c2ccc(O)c(O)c2)oc2cc(O)cc(O)c2c1=O | 5.06 |
| O=C(Nc1ccc(O)c(O)c1)c1cc(=O)c2c(O)cccc2o1 [(24a)] | 5.15 |
| O=C(NCCNC(=O)c1cc(=O)c2c(O)cccc2o1)c1ccc(O)c(O)c1 | 4.80 |

Shift focus to the following entry.
Prompt line: GET /values?readout=pIC50&item= O=c1cc(/C=C/c2ccc(O)c(O)c2)oc2cccc(O)c12
Response line: 5.15

----------
- tgt: RNA-dependent RNA polymerase (SARS-CoV-2) (Severe acute respiratory syndrome coronavirus 2)
- measurement_description: in vitro enzymatic assay of RdRp activity (AlphaScreen detection)
- Assay type: biochemical
- particulars: compound at 25 µM; read-out: % inhib. (25 µM)
parameter_measured: inhibition at 25 µM

Known inhibition at 25 µM results, listed for orientation:
| compound | experimental_value |
| --- | --- |
| O=C(OCCc1ccc(O)c(O)c1)c1cc(=O)c2c(O)cccc2o1 [(24c)] | 36% |
| CC(c1ccc(O)c(O)c1)c1cc(=O)c2c(O)cccc2o1 (stereo not shown) [(13b)] | 65% |
| CCCCC(c1ccc(O)c(O)c1)c1cc(=O)c2c(O)cccc2o1 (stereo not shown) [(13c)] | 16% |

Prompt line: GET /values?readout=inhibition at 25 µM&item= O=c1cc(/C=C/c2ccc(O)c(O)c2)oc2cccc(O)c12 [(18)]
Response line: 54%

----------
- tgt: RNA-dependent RNA polymerase (SARS-CoV-2) (Severe acute respiratory syndrome coronavirus 2)
- measurement_description: in vitro enzymatic assay of RdRp activity (AlphaScreen detection)
- Type: biochemical
- particulars: compound at 100 µM; read-out: % inhib. (100 µM)
# inhibition at 100 µM annotations
Entry rule: numbers only, all in %.

Known inhibition at 100 µM results, listed for orientation:
| compound | u | inhibition at 100 µM |
| --- | --- | --- |
| O=c1cc(Cc2ccc(O)c(O)c2)oc2cccc(O)c12 [(13a)] | % | 99 |
| CCCCOc1c(-c2ccc(O)c(O)c2)oc2cc(O)cc(O)c2c1=O | % | 98 |
| O=c1c(OCCO)c(-c2ccc(O)c(O)c2)oc2cc(O)cc(O)c12 | % | 100 |
| O=c1cc(CCc2ccc(O)c(O)c2)oc2cccc(O)c12 | % | 97 |

Prompt line: GET /values?readout=inhibition at 100 µM&item= CCCCC(c1ccc(O)c(O)c1)c1cc(=O)c2c(O)cccc2o1 (stereo not shown) [(13c)]
Response line: 37

Prompt line: GET /values?readout=inhibition at 100 µM&item= Cc1c(-c2ccc(O)c(O)c2)oc2cc(O)cc(O)c2c1=O
Response line: 99

Prompt line: GET /values?readout=inhibition at 100 µM&item= O=C(Nc1ccc(O)c(O)c1)c1cc(=O)c2c(O)cccc2o1 [(24a)]
Response line: 100

----------
- measurement_description: Microsomal stability in mice
- Format: in vitro ADME
- particulars: mouse microsomes
# Microsomal stability in mice t1/2 annotations

Known Microsomal stability in mice t1/2 results, listed for orientation:
| compound | experimental_value |
| --- | --- |
| O=c1c(O)c(-c2ccc(O)c(O)c2)oc2cc(O)cc(O)c12 [quercetin, reference compound] | >1 h |
| O=c1cc(Cc2ccc(O)c(O)c2)oc2cccc(O)c12 [(13a)] | >1 h |
| O=c1cc(CCc2ccc(O)c(O)c2)oc2cccc(O)c12 | >1 h |

Shift focus to the following entry.
Prompt line: GET /values?readout=Microsomal stability in mice t1/2&item= O=c1c(OCCCO)c(-c2ccc(O)c(O)c2)oc2cc(O)cc(O)c12
Response line: 1 h

----------
- tgt: RNA-dependent RNA polymerase (SARS-CoV-2) (Severe acute respiratory syndrome coronavirus 2)
parameter_measured: IC50 (µM)
Entry rule: numbers only, all in µM.

Known IC50 results, listed for orientation:
| molecule | u | IC50 |
| --- | --- | --- |
| O=C(Oc1ccc(O)c(O)c1)c1cc(=O)c2c(O)cccc2o1 [(24b)] | µM | 2 |
| CCCCOc1c(-c2ccc(O)c(O)c2)oc2cc(O)cc(O)c2c1=O | µM | 5.3 |

Prompt line: GET /values?readout=IC50&item= CC(c1ccc(O)c(O)c1)c1cc(=O)c2c(O)cccc2o1 (stereo not drawn) [(13b)]
Response line: 4.1

----------
- tgt: RNA-dependent RNA polymerase (SARS-CoV-2) (Severe acute respiratory syndrome coronavirus 2, UniProt P0DTD1)
- measurement_description: in vitro enzymatic assay of RdRp activity (AlphaScreen detection)
- Format: biochemical
- particulars: compound at 25 µM; read-out: % inhib. (25 µM)
Mark true for reported inhibition at 25 µM of 80% or greater; mark false for anything smaller.

| structure_smiles_string | class_assignment |
| --- | --- |
| O=C(NCCNC(=S)Nc1ccc(O)c(O)c1)c1cc(=O)c2c(O)cccc2o1 | true |
| CCCc1c(-c2ccc(O)c(O)c2)oc2cc(O)cc(O)c2c1=O | false |
| O=c1c(OCCCO)c(-c2ccc(O)c(O)c2)oc2cc(O)cc(O)c12 | false |

Moving on to another compound below.
Prompt line: Identify whether the reported inhibition at 25 µM of the following compound is 80% or greater: O=c1c(OCCO)c(-c2ccc(O)c(O)c2)oc2cc(O)cc(O)c12
Response line: true
